Test: Plasma pharmacokinetics after single oral dose of Δ8-THCV in MCT oil (LC-MS/MS, non-compartmental analysis)
Assay type: in vivo, human
Conditions: Predose; 50 mg Δ8-THCV dose; Mean (SD, %CV)
Protocol: The study was a two-phase, dose-ranging, placebo-controlled trial in 21 healthy participants to assess the safety, tolerability, PK, and PD of an oral formulation of Δ8-THCV. A detailed description of the study was published elsewhere. […] Plasma samples were analyzed using a validated high-performance liquid chromatography–tandem mass spectrometry (LC-MS/MS) assay. […] For the PK analysis, concentrations below the lower limit of quantification were set to 0 ng/mL. […]
metric_name: plasma concentration

Here is how some compounds turned out for plasma concentration.
CCCCCc1cc(O)c2c(c1)OC(C)(C)[C@@H]1CC=C(C(=O)O)CC21 (single isomer, unassigned; (+)) [Δ8-THC-COOH, (+)-11-nor-Δ8-THC-9-carboxylic acid]	0 (±0, --) ng/mL
CCCc1cc(O)c2c(c1)OC(C)(C)[C@@H]1CCC(C)=C[C@@H]21 [Δ9-THCV, Δ9-tetrahydrocannabivarin]	0 (±0, --) ng/mL
CCCc1cc(O)c2c(c1)OC(C)(C)[C@@H]1CCC(C(=O)O)=C[C@@H]21	0 (±0, --) ng/mL
CCCc1cc(O)c2c(c1)OC(C)(C)[C@@H]1CC=C(CO)C[C@@H]21 (racemic) [11-OH-Δ8-THCV, (±)-11-hydroxy-Δ8-THCV]	0 (±0, --) ng/mL
CCCc1cc(O)c2c(c1)OC(C)(C)[C@@H]1CC=C(C)C[C@@H]21 [Δ8-THCV, Δ8-tetrahydrocannabivarin]	0 (±0, --) ng/mL

Query CCCc1cc(O)c2c(c1)OC(C)(C)[C@@H]1CC=C(C(=O)O)C[C@@H]21 yields plasma concentration of 0.8 (±1.6, 187) ng/mL

From: paper PMC11676667
